System: tumorigenic breast cancer cells BT-474
Experiment: Growth inhibition assay (CyQUANT Cell Proliferation Assay) in BT-474 cells
Format: cell-based
Settings: Homo sapiens, 48 h, CyQUANT, read-out: Cell Growth Inibition GI50
Method: Given that REV-ERB target genes include several metabolic regulators, such as Pgc-1α and Nampt, it was decided to test the cell proliferation with a method that is independent from the metabolic state of the cell. […] Data were collected and analyzed with Prism 5 software to calculate the growth inhibition curve. […] GI50 was calculated as the concentration of compound that gives a response half way between bottom and top plateaus of the fitted curve. […]
Where a name gives a salt, the structure may show the parent alone.
Answer each item with its documented GI50.
# output: bare number, implied unit µM

Lab note: measured GI50 of `Oc1ccc(CNC2(c3ccccc3F)CCCC2)cc1CN1CCNCC1` was 24

GI50 reading for CN1CCN(Cc2cc(CNC3(c4ccccc4F)CCCC3)ccc2O)CC1 [Example 1, trihydrochloride] : 18

// GI50 value for `CN1CCN(Cc2cc(CNC3(c4ccccc4F)CCN(Cc4ccccc4)CC3)ccc2O)CC1` : 11

Measured GI50, Fc1ccccc1C1(NCc2cccc(CN3CCCCC3)c2)CCCC1 [Example 21, dihydrochloride] : 50

# compound CN1CCC(Cc2cccc(CNC3(c4ccc(F)cc4)CCCC3)c2)CC1 [Example 32, dihydrochloride] ; its GI50 = 1

Field GI50 (entry COc1ccc(CNC2(c3ccccc3F)CCCC2)cc1CN1CCN(C)CC1 [Example 5, trihydrochloride] ) reads 26

# compound Oc1ccc(CNC2(c3ccccc3F)CCCC2)cc1CN1CCCCC1 [Example 2, dihydrochloride] ; its GI50 = 30

Looking up CN1CCN(Cc2cccc(CNC3(c4ccccc4F)CCCC3)c2)CC1 [Example 4, trihydrochloride] , I see its GI50 listed as 30

Given item CN1CCN(Cc2cc(CNC3(c4ccccc4)CCCC3)ccc2O)CC1 [Example 7, trihydrochloride] , the value recorded as its GI50 is 18

Looking up CN1CCN(Cc2cc(CNC3(c4cccs4)CCCC3)ccc2O)CC1 [Example 25, trihydrochloride] , I found its GI50 recorded as 18

Query Oc1ccc(CNC2(c3ccccc3F)CCCC2)cc1CN1CCN(c2ccccc2)CC1 [Example 9, trihydrochloride] yields GI50 of 30

Memo: CCN1CCN(Cc2cc(CNC3(c4ccccc4F)CCCC3)ccc2O)CC1 [Example 10, trihydrochloride] , reported GI50: 15

Form: compound = CN1CCC(Cc2cccc(CNC3(c4ccccc4F)CCOCC3)c2)CC1 [Example 30, dihydrochloride] ; GI50 = 3

Entry under test: COc1ccccc1C1(NCc2ccc(O)c(CN3CCN(C)CC3)c2)CCCC1 [Example 14, trihydrochloride] . Its GI50 was 19

Entry CN1CCC(Cc2cccc(CNC3(c4ccccc4F)CCCC3)c2)CC1 [Example 18, dihydrochloride] ; GI50 = 2

Query CN1CCN(Cc2cc(CNC3(c4ccccc4F)CCCCC3)ccc2O)CC1 [Example 3, trihydrochloride] yields GI50 of 14
